Cited source: patent US20250059231A1

- TESTED_TARGET: WNV protease (West Nile virus, UniProt P06935)
- Construct: a trypsin-like serine protease domain in the N-terminal region of the flaviviral NS3 proteins
- Sequence (P06935 1424-1463): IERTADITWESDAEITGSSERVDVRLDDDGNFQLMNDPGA
- Sequence (P06935 1502-1679): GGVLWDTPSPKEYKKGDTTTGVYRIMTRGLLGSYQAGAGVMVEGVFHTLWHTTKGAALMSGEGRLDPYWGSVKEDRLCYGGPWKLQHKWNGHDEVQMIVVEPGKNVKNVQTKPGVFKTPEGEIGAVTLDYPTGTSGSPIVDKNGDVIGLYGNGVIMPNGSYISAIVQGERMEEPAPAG
- ASSAY_DETAILS: WNV protease assay (analogous procedure)
- Type: biochemical
- TEST_SETTINGS: at 50 μM
- Procedure: By catalytic activity of the protease, the cleaved substrate results in increased fluorescence that can be monitored using a BMG Labtech Fluostar OPTIMA Microtiter fluorescence plate reader (excitation wavelength of 320 nm and a monitored emission wavelength of 405 nm). Dilutions were made starting from 10 mM stock solutions in DMSO and final concentrations were measured in triplicates. […]
Where a SMILES comes first, the peptide text is derived from it. [ ]: non-standard residue; d: D form. The star is where a group is joined. Arachidoyl = CCCCCCCCCCCCCCCCCCCC(=O)*; Palmitoyl = CCCCCCCCCCCCCCCC(=O)*
MEASURED_METRIC: inhibition at 50 µM

Recorded results for 2 compounds are shown here.
>  <COMPOUND>
CCCCCCCCCCCCCCCC(=O)N[C@@H](CCCCN)C(=O)N1CCC[C@H]1C(=O)N[C@@H](C)C(=O)N[C@@H](CCc1ccccc1)C(=O)C(N)=O

>  <inhibition at 50 µM>
≥ 25%

$$$$
>  <COMPOUND>
CCCCCCCCCCCCCCCCCCCC(=O)N[C@@H](CCCCN)C(=O)N[C@@H](C)C(=O)N[C@@H](C)C(=O)N[C@H](CCCCN)C(N)=O [compound 132] (Arachidoyl-KAA[dK]-NH2)

>  <inhibition at 50 µM>
≥ 25%

$$$$

Please find the next compound below.
Problem: Note down inhibition at 50 µM recorded for CCCCCCCCCCCCCCCC(=O)N[C@H](CCCCN)C(=O)N[C@@H](C)C(=O)N[C@@H](C)C(=O)N[C@@H](CCCCN)C(N)=O [compound 115] (Palmitoyl-[dK]AAK-NH2)
Solution: ≥ 25%
